Test system: K. pneumoniae
Format: cell-based
RECORDED_CONDITIONS: K. pneumoniae strain KP001
REPORTED_ENDPOINT: MIC (µg/mL)
Give a bare numeral; the unit µg/mL is implied.

// below: answered sequences
{"ITEM_SEQUENCE": "ILRWVWWVWRRK [MBI 11F4CN]", "READOUT_UNITS": "µg/mL", "MIC": 8}
{"ITEM_SEQUENCE": "ILRWPWWPWRRKDMILKKAGS [MBI 11B18CN]", "READOUT_UNITS": "µg/mL", "MIC": 32}

For record ILKKFPWFPWRRK [MBI 11A6CN] the listed MIC is 32

ILRWPWWPWRRKIMILKKAGS [MBI 11B16CN] has a reported MIC of 16

Sample ILRNPNNPNRRK [MBI 11B7CNF12] ; MIC observed: 16

====

System: K. pneumoniae
Format: cell-based
RECORDED_CONDITIONS: K. pneumoniae strain KP001
Measured MIC, listed per entry.

Observe how each entry below is paired with its result.
{"ITEM_SEQUENCE": "ILKKPWWPWRRK [MBI 11G3CN]", "MIC": ">128 µg/mL"}
{"ITEM_SEQUENCE": "ILKKYPYYPYRRK [MBI 11A3CN]", "MIC": ">128 µg/mL"}
{"ITEM_SEQUENCE": "ILKKWWWPWRRK [MBI 11G4CN]", "MIC": ">128 µg/mL"}

Quick note, MIC for ILKKWPWWPWRPMILKKAGS [MBI 11D5CN] landed at >64 µg/mL

sequence ILKKYPWYPWRRK [MBI 11A5CN] , MIC observed: >128 µg/mL

Entry under test: ILWPWWPWRRK [MBI 11B8CN] . Its MIC was >128 µg/mL

====

Tested on: S. aureus
Assay type: cell-based
RECORDED_CONDITIONS: S. aureus strain SA093
REPORTED_ENDPOINT: MIC (µg/mL)
I only need the number, in µg/mL, no unit after it.

The recorded MIC for WWRWPWWPWRRK [MBI 11A10CN] is 2

The reported value for ILRWPWWPWRRKMILKKAGS [MBI 11B17CN] in terms of MIC is 2

The sequence identified as KRRWVWWVWRLI [MBI 11F4CNR] registered its MIC at 8

====

Test system: P. aeruginosa
Assay type: cell-based
RECORDED_CONDITIONS: P. aeruginosa strain PA004
REPORTED_ENDPOINT: MIC (µg/mL)
Just the number please, in µg/mL, no unit attached.

{"ITEM_SEQUENCE": "ILRRNPNNPNRRK [MBI 11B1CNW1]", "READOUT_UNITS": "µg/mL", "MIC": 64}
{"ITEM_SEQUENCE": "ILKKWVWWVWRRK [MBI 11F1CN]", "READOUT_UNITS": "µg/mL", "MIC": 64}
{"ITEM_SEQUENCE": "ILRRVJPWWPWRRR [MBI 11B9CN]", "READOUT_UNITS": "µg/mL", "MIC": 128}

ILRWPWWPWRRK [MBI 11B7CN] yielded MIC of 128

====

The sequences listed here are annotated with their MIC.
System: E. faecalis
Format: cell-based
RECORDED_CONDITIONS: E. faecalis EFS001
Quick reminder: number only, in µg/mL, skip the unit.

{"ITEM_SEQUENCE": "WPWWPWRRK [MBI 11G27CN]", "EXPERIMENTAL_SYSTEM": "E. faecalis", "MIC (µg/mL)": 8}
{"ITEM_SEQUENCE": "ILRWPWWPWARK [MBI 11H10CN]", "EXPERIMENTAL_SYSTEM": "E. faecalis", "MIC (µg/mL)": 2}
{"ITEM_SEQUENCE": "ILRWPWWAWRRK [MBI 11H08CN]", "EXPERIMENTAL_SYSTEM": "E. faecalis", "MIC (µg/mL)": 2}

Field MIC (entry ILRRWVWWVWRRK [MBI 11F5CN] ) reads 2

Lab book: MIC of LRWPWWPW [MBI 11G26CN] noted as 2

MIC reading for ILKKWPNNPNRRK [MBI 11CNW1] : 8

Short answer for ILAWPWWPWRRK [MBI 11H03CN] : MIC was 2

Consider ALRWPWWPWRRK [MBI 11H01CN] . Its measured MIC is 2
